glycan array binding signal (z-score) reference
- Test system: Fuc(a1-2)Gal(b1-4)[Fuc(a1-3)]GlcNAc(b1-2)Man(a1-3)[Fuc(a1-2)Gal(b1-4)[Fuc(a1-3)]GlcNAc(b1-2)Man(a1-6)]Man(b1-4)GlcNAc(b1-4)GlcNAc
- Experiment description: glycan array binding signal (z-score within array); higher = stronger binding
- Condition parameters: glycan notation: IUPAC condensed, linker removed
The entries come from a sample that favours the strongest signals as a whole.
Assay endpoint: glycan array binding signal (z-score)

>>> quantitative_result("SSA (Sclerotinia sclerotiorum), A7XUK7 (protein) MGFKGVGTYEIVPYQAPSLNLNAWEGKLEPGAVVRTYTRGDKPSDNAKWQVALVAGSGDSAEYLIINVHSGYFLTATKENHIVSTPQISPTDPSARWTIKPATTHQYEVFTINNKVSELGQLTVKDYSTHSGADVLSASAKTADNQKWYFDAK")
-0.173
>>> quantitative_result("PEB3 (Campylobacter jejuni), Q0PBL7 (protein) MKKIITLFGACALAFSMANADVNLYGPGGPHTALKDIANKYSEKTGVKVNVNFGPQATWFEKAKKDADILFGASDQSALAIASDFGKDFNVSKIKPLYFREAIILTQKGNPLKIKGLKDLANKKVRIVVPEGAGKSNTSGTGVWEDMIGRTQDIKTIQNFRNNIVAFVPNSGSARKLFAQDQADAWITWIDWSKSNPDIGTAVAIEKDLVVYRTFNVIAKEGASKETQDFIAYLSSKEAKEIFKKYGWRE")
4.64
>>> quantitative_result("3FTT (Staphylococcus aureus), Q5HCZ5 (protein) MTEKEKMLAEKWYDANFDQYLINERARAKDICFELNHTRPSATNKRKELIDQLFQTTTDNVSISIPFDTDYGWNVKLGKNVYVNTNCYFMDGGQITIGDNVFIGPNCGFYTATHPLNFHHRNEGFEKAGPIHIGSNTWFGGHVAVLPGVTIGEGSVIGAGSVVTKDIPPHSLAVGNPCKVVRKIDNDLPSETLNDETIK")
0.815
>>> quantitative_result("Flo1 (Saccharomyces cerevisiae), P32768 (protein) SGATEACLPAGQRKSGMNINFYQYSLKDSSTYSNAAYMAYGYASKTKLGSVGGQTDISIDYNIPCVSSSGTFPCPQEDSYGNWGCKGMGACSNSQGIAYWSTDLFGFYTTPTNVTLEMTGYFLPPQTGSYTFKFATVDDSAILSVGGATAFNCCAQQQPPITSTNFTIDGIKPWGGSLPPNIEGTVYMYAGYYYPMKVVYSNAVSWGTLPISVTLPDGTTVSDDFEGYVYSFDDDLSQSNCTVPDPSNY")
2.48
>>> quantitative_result("AcfC (Vibrio cholerae), Q57410 (protein) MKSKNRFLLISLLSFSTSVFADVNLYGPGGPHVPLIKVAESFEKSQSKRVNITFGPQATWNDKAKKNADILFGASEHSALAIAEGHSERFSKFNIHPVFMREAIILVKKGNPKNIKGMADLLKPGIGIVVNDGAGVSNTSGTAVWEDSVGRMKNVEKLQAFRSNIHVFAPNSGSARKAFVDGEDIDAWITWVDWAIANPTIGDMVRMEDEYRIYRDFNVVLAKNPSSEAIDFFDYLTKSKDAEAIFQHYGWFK")
3.03
